Each item that follows carries a reported activity at 10 µM.
Biological target: Recombinant GST-TAG-MASTL (Homo sapiens, UniProt Q96GX5)
Construct: GST; purchased Thermo Fisher Scientific
Sequence (Q96GX5 1-879): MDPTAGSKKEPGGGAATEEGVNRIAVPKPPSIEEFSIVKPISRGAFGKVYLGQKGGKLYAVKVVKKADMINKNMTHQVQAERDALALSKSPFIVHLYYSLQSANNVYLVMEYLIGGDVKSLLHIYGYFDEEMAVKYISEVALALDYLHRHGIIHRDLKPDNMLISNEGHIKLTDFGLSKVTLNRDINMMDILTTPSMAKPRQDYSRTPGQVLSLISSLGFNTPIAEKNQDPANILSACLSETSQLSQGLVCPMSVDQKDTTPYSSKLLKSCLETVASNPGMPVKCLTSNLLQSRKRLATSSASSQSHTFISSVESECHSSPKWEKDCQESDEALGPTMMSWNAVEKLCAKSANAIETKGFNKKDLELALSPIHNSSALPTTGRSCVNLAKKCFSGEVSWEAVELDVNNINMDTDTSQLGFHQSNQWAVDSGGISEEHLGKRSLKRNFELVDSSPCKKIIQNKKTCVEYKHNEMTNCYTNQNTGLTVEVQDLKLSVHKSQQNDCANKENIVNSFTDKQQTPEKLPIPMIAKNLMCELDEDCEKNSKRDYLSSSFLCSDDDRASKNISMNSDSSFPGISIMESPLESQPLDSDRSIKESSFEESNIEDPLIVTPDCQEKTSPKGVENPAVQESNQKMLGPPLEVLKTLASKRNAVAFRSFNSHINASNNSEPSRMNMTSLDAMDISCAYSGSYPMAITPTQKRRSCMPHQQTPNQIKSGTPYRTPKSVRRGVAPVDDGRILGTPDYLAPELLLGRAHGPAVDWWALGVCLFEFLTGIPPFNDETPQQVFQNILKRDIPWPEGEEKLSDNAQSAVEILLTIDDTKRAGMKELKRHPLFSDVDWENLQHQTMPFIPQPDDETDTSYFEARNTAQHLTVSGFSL
Assay: HTRF-based kinase assay (HTRF KinEASE assay kit)
Type: biochemical
Conditions: footnote b: concentration 10 µM; read-out: MASTL activity (%) HTRF
Expressed in %, but write only the number.

Solved entries:
[[record]]
compound = "c1ccc2c(Nc3cc(C4CC4)[nH]n3)nc(Nc3ccc(Cc4nnn[nH]4)cc3)nc2c1"
reading = 15.1

[[record]]
compound = "Cc1cccc(S(=O)(=O)N2CC3CC2CN3c2nc(Nc3cc(C4CC4)[nH]n3)c3ccccc3n2)c1 (stereo not shown) [compound 15t]"
reading = 15.5

[[record]]
compound = "O=S(=O)(Cc1ccccc1)N1CC2CC1CN2c1nc(Nc2cc(C3CC3)[nH]n2)c2ccccc2n1 (stereo not shown) [compound 15l]"
reading = 18.1

[[record]]
compound = "CC(=O)c1ccc(S(=O)(=O)N2CC3CC2CN3c2nc(Nc3cc(C4CC4)[nH]n3)c3ccccc3n2)cc1 (stereo not shown) [compound 15s]"
reading = 19.2


query: // fetch activity at 10 µM given entry OCCN1CCN(c2nc(Nc3cc(C4CC4)[nH]n3)c3ccccc3n2)CC1 [compound 12b]
result: 17.7

query: // fetch activity at 10 µM given entry O=S(=O)(C1CC1)N1CC2CC1CN2c1nc(Nc2cc(C3CC3)[nH]n2)c2ccccc2n1 (stereo not shown) [compound 15i]
result: 15.5

query: // fetch activity at 10 µM given entry O=S(=O)(C1CCCCC1)N1CC2CC1CN2c1nc(Nc2cc(C3CC3)[nH]n2)c2ccccc2n1 (stereo not shown) [compound 15k]
result: 11.3

query: // fetch activity at 10 µM given entry c1ccc2c(Nc3cc(C4CC4)[nH]n3)nc(N3CCNCC3)nc2c1
result: 18.1

query: // fetch activity at 10 µM given entry CNCc1ccc(-c2nc(Nc3cc(C4CC4)[nH]n3)c3ccccc3n2)cc1
result: 20.4

query: // fetch activity at 10 µM given entry c1ccc(CNc2nc(Nc3cc(C4CC4)[nH]n3)c3ccccc3n2)cc1
result: 22

* * *

target: Recombinant GST-TAG-MASTL (Homo sapiens, UniProt Q96GX5); construct: GST; purchased Thermo Fisher Scientific; test: HTRF-based kinase assay (HTRF KinEASE assay kit); type: biochemical; settings: HTRF; read-out: IC50(nM) MASTL activity
experimentalReadout: IC50 (nM)
Expressed in nM, but write only the number.

Solved entries:
[[record]]
compound = "O=S(=O)(c1ccccc1)N1CC2CC1CN2c1nc(Nc2cc(C3CC3)[nH]n2)c2ccccc2n1 (stereo not shown) [compound 15m]"
reading = 490

[[record]]
compound = "CC(C)(C)OC(=O)N1CC2CCC1CN2c1nc(Nc2cc(C3CC3)[nH]n2)c2ccccc2n1 (stereo not shown)"
reading = 569


query: // fetch IC50 given entry c1ccc(CN2CC3CC2CN3c2nc(Nc3cc(C4CC4)[nH]n3)c3ccccc3n2)cc1 (stereo not shown) [compound 15g]
result: 225

query: // fetch IC50 given entry c1ccc(Nc2nc(Nc3cc(C4CC4)[nH]n3)c3ccccc3n2)cc1
result: 987

* * *

Each item that follows carries a reported IC50.
Molecular target: Recombinant GST-TAG-MASTL (Homo sapiens, UniProt Q96GX5)
Construct: GST; purchased Thermo Fisher Scientific
Test: HTRF-based kinase assay (HTRF KinEASE assay kit)
Format: biochemical
Excerpt: Recombinant GST-TAG-MASTL (Thermo Fisher Scientific, MA, USA) was used for HTRF-based kinase assays. The HTRF KinEASE assay kit (CisBio, MA, USA) was used according to the manufacturer's instructions.
Expressed in nM, but write only the number.

[[record]]
smilesnotation = "N#CCc1ccc(C2=CCN(c3nc(Nc4cc(C5CC5)[nH]n4)c4ccccc4n3)CC2)cc1F"
targetdesc = "Recombinant GST-TAG-MASTL (Homo sapiens, UniProt Q96GX5)"
reading = 121

[[record]]
smilesnotation = "NCCNC(=O)c1ccc(Nc2nc(Nc3cc(C4CC4)[nH]n3)c3ccccc3n2)cc1"
targetdesc = "Recombinant GST-TAG-MASTL (Homo sapiens, UniProt Q96GX5)"
reading = 720

[[record]]
smilesnotation = "N#CCc1ccc(Nc2nc(Nc3cc(Br)[nH]n3)c3ccccc3n2)cc1"
targetdesc = "Recombinant GST-TAG-MASTL (Homo sapiens, UniProt Q96GX5)"
reading = 640


Below: the item to evaluate.
query: // fetch IC50 given entry COc1cc(Nc2nc(Nc3ccc(CC#N)cc3)nc3ccccc23)n[nH]1
result: 816

* * *

Each item that follows carries a reported activity at 1 µM.
target: Recombinant GST-TAG-MASTL (Homo sapiens, UniProt Q96GX5); construct: GST; purchased Thermo Fisher Scientific; test: HTRF-based kinase assay (HTRF KinEASE assay kit); format: biochemical; details: compound 1 µM; read-out: MASTL activity (%) HTRF (1 µM)
Expressed in %, but write only the number.

[[record]]
compound = "Cc1ccc(-c2nc3ccccc3s2)cc1Nc1nc(Nc2cc(C3CC3)[nH]n2)c2ccccc2n1"
targetdesc = "Recombinant GST-TAG-MASTL (Homo sapiens, UniProt Q96GX5)"
reading = 81.5

[[record]]
compound = "Cc1cc(Nc2nc(N3CC4CC3CN4Cc3ccccc3)nc3ccccc23)n[nH]1 (stereo not shown) [compound 27f]"
targetdesc = "Recombinant GST-TAG-MASTL (Homo sapiens, UniProt Q96GX5)"
reading = 78.4

[[record]]
compound = "CC(C)S(=O)(=O)N1CC2CC1CN2c1nc(Nc2cc(C3CC3)[nH]n2)c2ccccc2n1 (stereo not shown) [compound 15h]"
targetdesc = "Recombinant GST-TAG-MASTL (Homo sapiens, UniProt Q96GX5)"
reading = 15.7


query: // fetch activity at 1 µM given entry Cc1cc(Nc2nc(N3CC4CC3CN4C(=O)c3ccccc3)nc3ccccc23)n[nH]1 (stereo not shown) [compound 27d]
result: 121

* * *

tested on: pENSA; assay: pENSA level by immunofluorescence (described method: in vitro kinase analysis with GST-tag-MASTL and His-tag-ENSA); type: cell-based; details: compound 1 µM
experimentalReadout: pENSA (%) Immunofluor ecense (1 µM)
Expressed in %, but write only the number.

Solved entries:
[[record]]
compound = "CN(C)S(=O)(=O)c1ccc(Nc2nc(Nc3ccc(CC#N)cc3)nc3ccccc23)cc1 [compound 25a]"
unitabbrev = "%"
reading = 91.2

[[record]]
compound = "CN(C)S(=O)(=O)c1ccc(Nc2nc(Nc3ccc(C(F)(F)F)cc3)nc3ccccc23)cc1 [compound 25c]"
unitabbrev = "%"
reading = 96.5

[[record]]
compound = "Fc1ccccc1C1=CCN(c2nc(Nc3cc(C4CC4)[nH]n3)c3ccccc3n2)CC1 [compound 6k]"
unitabbrev = "%"
reading = 82


query: // fetch pENSA (%) Immunofluor ecense (1 µM) given entry C1=C(c2cccc3ccccc23)CCN(c2nc(Nc3cc(C4CC4)[nH]n3)c3ccccc3n2)C1 [compound 6i]
result: 97.2

query: // fetch pENSA (%) Immunofluor ecense (1 µM) given entry Cc1cc(Nc2nc(N3CC4CC3CN4C(=O)C(C)C)nc3ccccc23)n[nH]1 (stereo not shown) [compound 27c]
result: 90.5

query: // fetch pENSA (%) Immunofluor ecense (1 µM) given entry O=C(Nc1ccccc1)N1CC2CC1CN2c1nc(Nc2cc(C3CC3)[nH]n2)c2ccccc2n1 (stereo not shown) [compound 15c]
result: 11.3

query: // fetch pENSA (%) Immunofluor ecense (1 µM) given entry NC(=O)Cc1ccc(Nc2nc(Nc3cc(C4CC4)[nH]n3)c3ccccc3n2)cc1 [compound 4u]
result: 41.2

query: // fetch pENSA (%) Immunofluor ecense (1 µM) given entry c1ccc(CN2CC3CC2CN3c2nc(Nc3cc(C4CC4)[nH]n3)c3ccccc3n2)cc1 (stereo not shown) [compound 15g]
result: 65.6

query: // fetch pENSA (%) Immunofluor ecense (1 µM) given entry CC(C)(C)OC(=O)N1CCN(c2nc(Nc3cc(C4CC4)[nH]n3)c3ccccc3n2)CC1 [compound 10]
result: 50.3

query: // fetch pENSA (%) Immunofluor ecense (1 µM) given entry NCCCNC(=O)c1ccc(Nc2nc(Nc3cc(C4CC4)[nH]n3)c3ccccc3n2)cc1 [4ab]
result: 188
